Source: ChEMBL document CHEMBL4808209

# TARGET OR SYSTEM: CYP2D6 (Homo sapiens)
# Sequence (P10635 whole entry): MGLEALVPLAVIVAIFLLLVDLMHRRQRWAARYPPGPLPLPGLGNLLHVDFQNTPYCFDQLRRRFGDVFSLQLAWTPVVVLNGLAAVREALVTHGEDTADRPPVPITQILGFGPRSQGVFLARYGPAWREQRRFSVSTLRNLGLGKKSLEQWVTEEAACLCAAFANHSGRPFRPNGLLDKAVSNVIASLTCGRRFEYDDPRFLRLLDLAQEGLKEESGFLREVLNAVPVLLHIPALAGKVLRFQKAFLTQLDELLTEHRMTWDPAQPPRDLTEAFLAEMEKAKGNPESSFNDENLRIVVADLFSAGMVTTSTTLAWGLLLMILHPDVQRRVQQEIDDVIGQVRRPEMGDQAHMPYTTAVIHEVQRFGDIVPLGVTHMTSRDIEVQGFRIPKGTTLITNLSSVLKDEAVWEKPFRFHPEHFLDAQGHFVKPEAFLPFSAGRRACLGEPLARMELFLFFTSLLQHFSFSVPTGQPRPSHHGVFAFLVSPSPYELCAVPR
# ASSAY REMARKS: Inhibition of CYP2D6 in human liver microsomes using bufuralol as substrate substrate in presence of NADPH by LC-MS/MS analysis
# Format: ADME
# CONDITION INFO: human, liver microsomes, probe bufuralol
pIC50: −log10 of the molar value.
MEASUREMENT LABEL: pIC50

> print(dat)
                            compound.string       target.or.system  reading
1  CCN1C(=O)N(c2c(F)c(OC)cc(OC)c2F)Cc2cnc3[nH]c(CN4CCOCC4)cc3c21  CYP2D6 (Homo sapiens)   < 4.60
